Source of measurements: patent US9527807B2

# tested_target: AMPA receptor (human GluR1 flip/stargazin expressed in CHO-K1 cells) (Homo sapiens)
# Construct: expressed in transfected cells; host or cells: CHO-K1
# Sequence (P42261 19-906 isoform P42261-2 limits assumed): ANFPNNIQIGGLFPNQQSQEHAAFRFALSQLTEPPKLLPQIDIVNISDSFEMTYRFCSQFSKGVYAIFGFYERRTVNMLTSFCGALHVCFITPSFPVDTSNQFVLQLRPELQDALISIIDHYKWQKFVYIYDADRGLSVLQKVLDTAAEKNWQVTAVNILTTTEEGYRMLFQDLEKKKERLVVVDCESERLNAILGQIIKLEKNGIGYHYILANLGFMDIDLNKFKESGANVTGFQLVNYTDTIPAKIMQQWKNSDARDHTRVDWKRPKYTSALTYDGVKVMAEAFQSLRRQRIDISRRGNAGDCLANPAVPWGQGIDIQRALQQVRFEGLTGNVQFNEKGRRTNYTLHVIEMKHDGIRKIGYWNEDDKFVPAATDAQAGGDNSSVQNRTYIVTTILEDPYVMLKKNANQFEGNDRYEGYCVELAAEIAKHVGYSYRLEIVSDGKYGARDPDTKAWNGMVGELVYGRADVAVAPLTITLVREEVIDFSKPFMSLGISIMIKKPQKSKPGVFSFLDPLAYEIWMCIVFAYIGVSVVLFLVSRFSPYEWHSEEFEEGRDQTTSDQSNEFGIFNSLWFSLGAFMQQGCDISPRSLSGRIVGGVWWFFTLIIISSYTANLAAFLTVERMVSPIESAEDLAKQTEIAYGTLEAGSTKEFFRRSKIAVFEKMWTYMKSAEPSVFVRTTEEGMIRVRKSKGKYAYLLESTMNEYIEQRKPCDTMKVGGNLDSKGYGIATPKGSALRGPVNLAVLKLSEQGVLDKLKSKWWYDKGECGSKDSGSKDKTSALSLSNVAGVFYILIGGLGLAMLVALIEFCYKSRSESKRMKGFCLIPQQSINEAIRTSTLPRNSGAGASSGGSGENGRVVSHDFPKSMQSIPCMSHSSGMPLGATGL
# Sequence (Q9Y698 whole entry partner): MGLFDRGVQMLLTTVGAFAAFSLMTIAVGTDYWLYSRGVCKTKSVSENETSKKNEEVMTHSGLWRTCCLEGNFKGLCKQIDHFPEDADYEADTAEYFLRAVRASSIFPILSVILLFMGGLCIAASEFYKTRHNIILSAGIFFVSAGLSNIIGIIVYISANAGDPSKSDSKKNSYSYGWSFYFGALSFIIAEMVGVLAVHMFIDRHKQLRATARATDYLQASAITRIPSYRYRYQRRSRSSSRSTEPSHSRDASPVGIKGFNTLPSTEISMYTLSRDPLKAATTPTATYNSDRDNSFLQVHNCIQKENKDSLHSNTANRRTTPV
# protocol_notes: AMPA receptor function enhancing activity using calcium influx as index
# Assay type: cell-based
# setup_conditions: change in fluorescence level in 3 min, 100% = 3 mM glutamic acid + 300 μM cyclothiazide, 0% = 3 mM glutamic acid only
Lab note: anything with activity (%) at or over 90% counts as condition met; the rest go in condition not met.

Reported activity (%) at or above 90%? CCS(=O)(=O)N[C@H]1CCOC[C@@H]1COc1ccc(-n2nccc2C)cc1 (racemic) condition not met

Reported activity (%) at or above 90%? CS(=O)(=O)N[C@H]1C[C@H]2CC[C@H](O2)[C@@H]1COc1ccc(-c2ccc(C#N)cn2)cc1 (mixture of isomers) condition not met

Reported activity (%) at or above 90%? CCS(=O)(=O)N[C@H]1CCC(F)(F)C[C@@H]1COc1ccc(-c2cccn(C)c2=O)cc1 condition met

Reported activity (%) at or above 90%? CCS(=O)(=O)N[C@H]1COCC[C@@H]1COc1ccc(-c2ccc(Cl)cn2)cc1 condition not met

Reported activity (%) at or above 90%? Cc1cnn(-c2ccc(OC[C@H]3COCC[C@@H]3NS(=O)(=O)C(F)(F)F)cc2)c1 (racemic) condition met

Reported activity (%) at or above 90%? CCS(=O)(=O)N[C@H]1CCC(F)(F)C[C@@H]1COc1ccc(-n2ccc(C)n2)cc1 (relative stereo) condition not met

Reported activity (%) at or above 90%? CS(=O)(=O)N[C@H]1CCOC[C@@H]1COc1ccc(-n2cc(Cl)cn2)cc1 (racemic) [Example 270] condition not met

Reported activity (%) at or above 90%? Cc1cc(-c2ccc(OC[C@H]3COCC[C@@H]3NS(C)(=O)=O)cc2)nn1C (racemic) condition not met

Reported activity (%) at or above 90%? CS(=O)(=O)N[C@H]1COCC[C@@H]1COc1ccc(-c2ccc(Cl)cn2)cc1 condition not met

Reported activity (%) at or above 90%? CCS(=O)(=O)N[C@H]1CCOC[C@@H]1COc1ccc(-c2cccnc2)cc1 (relative stereo) condition met

Reported activity (%) at or above 90%? CCS(=O)(=O)N[C@H]1COCC[C@@H]1COc1ccc(C(C)C)cc1 (relative stereo) [Example 95] condition not met

Reported activity (%) at or above 90%? CCS(=O)(=O)N[C@@H]1CCCC[C@H]1COc1ccc(CCC#N)cc1 (relative stereo) condition not met

Reported activity (%) at or above 90%? CS(=O)(=O)N[C@H]1CCC(F)(F)C[C@@H]1COc1ccc(-c2ncc(C#N)cc2F)cc1 condition met

Reported activity (%) at or above 90%? CCS(=O)(=O)N[C@H]1CCOC[C@@H]1COc1ccc(-n2cc(Cl)cn2)c(F)c1 (racemic) condition met
